- target-or-system: PDE1B (Homo sapiens, UniProt Q01064)
- Sequence (Q01064 whole entry): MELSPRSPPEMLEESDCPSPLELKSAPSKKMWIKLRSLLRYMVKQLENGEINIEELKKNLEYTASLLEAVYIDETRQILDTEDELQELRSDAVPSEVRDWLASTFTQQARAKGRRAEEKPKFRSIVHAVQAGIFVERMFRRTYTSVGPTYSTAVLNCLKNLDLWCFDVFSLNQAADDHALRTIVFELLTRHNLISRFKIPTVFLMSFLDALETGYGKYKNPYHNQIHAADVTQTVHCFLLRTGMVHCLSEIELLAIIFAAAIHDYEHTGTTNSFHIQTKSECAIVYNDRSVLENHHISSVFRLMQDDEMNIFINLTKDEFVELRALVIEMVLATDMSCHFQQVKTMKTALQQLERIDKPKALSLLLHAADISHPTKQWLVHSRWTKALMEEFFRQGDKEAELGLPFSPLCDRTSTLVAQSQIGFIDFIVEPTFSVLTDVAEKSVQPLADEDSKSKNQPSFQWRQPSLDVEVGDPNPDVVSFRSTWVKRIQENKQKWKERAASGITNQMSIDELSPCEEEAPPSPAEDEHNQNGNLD
- experiment: PDE1 inhibition assay (PDE1B), SPA with tritium labelled cAMP
- Format: biochemical
- particulars: 15 nM tritium labelled cAMP, 1 hr at room temperature, SPA beads; read-out: PDE1B, IC50
Threshold 6 nM: IC50 strictly smaller gives Met, otherwise Not met.

IC50 under 6 nM? Item: "CC(C)c1nn(C)c2nc(-c3ccccc3)cc(NCc3ncn(C)n3)c12"
Not met

IC50 under 6 nM? Item: "CCOc1ncccc1-c1cc(NCc2cccnc2OC)c2c(C(C)C)nc(C)n2n1"
Not met

IC50 under 6 nM? Item: "CCOc1ncccc1-c1cc(NCc2nnc(C)o2)c2c(C(C)C)nn(C)c2n1"
Not met

IC50 under 6 nM? Item: "CCOc1ncccc1-c1cc(NCc2ccn(C)n2)c2c(C(C)C)nc(C)n2n1"
Met

IC50 under 6 nM? Item: "Cc1cnc(-c2cc(NCc3ncn(C)n3)c3c(C(C)C)nn(C)c3n2)s1"
Not met

IC50 under 6 nM? Item: "CCOc1ncccc1-c1cc(NCc2cncc(OC)c2)c2c(C(C)C)nn(C)c2n1"
Not met

IC50 under 6 nM? Item: "CCOc1ncccc1-c1cc(NCc2cccc3nccn23)c2c(C(C)C)nc(C)n2n1"
Not met

IC50 under 6 nM? Item: "Cc1sccc1-c1cc(NCc2ncn(C)n2)c2c(C(C)C)nn(C)c2n1"
Met

IC50 under 6 nM? Item: "CCOc1ncccc1-c1cc(NCc2cn(C)cn2)c2c(C(C)C)nc(C)n2n1"
Met
